# System: U2OS
# method-notes: Multiplex assay against U2OS
# Assay type: toxicity, cell-based
# condition-info: human, 24 h, 1 µM, compound concentration 1 uM, replicate 1
measure: Population Mitotic Cells (%)
Dear colleague, please return just the value in %, with no unit written.

Look over these answered cases.
Cc1cccc(CN2CCN(C(c3ccccc3)c3ccc(Cl)cc3)CC2)c1.Cl.Cl (stereo not given) | 54
Cc1ccc(C)c(Oc2ccncc2C(=O)N2CCN(C3CC3)c3ccccc32)c1 | 52
CC(C)c1noc(N2CCC(COc3ccc(-c4ccc(S(C)(=O)=O)cc4)nc3)CC2)n1 [GSK-1292263] | 50
COc1cc(Nc2nccc(-c3cnn4nc(OC)ccc34)n2)cc(C(F)(F)F)c1 | 75

Now look at this entry.
Qu. Identify measured Population Mitotic Cells (%) obtained with U2OS for C=CC(=O)Nc1cccc(Oc2nc(Nc3ccc(N4CCN(C)CC4)cc3OC)ncc2Cl)c1 .
Ans. 8

###

# Test system: U2OS
# method-notes: Multiplex assay against U2OS
# Assay type: toxicity, cell-based
# condition-info: human, 12 h, 1 µM, compound concentration 1 uM, replicate 1
Please assign -1 whenever Population Membrane Permeable-Phenotype (%) is at or above 8%, and 1 whenever it is below.

Please review the entries below; each comes with its answer.
CCCSc1nc(N[C@@H]2C[C@H]2c2ccc(F)c(F)c2)c2nnn([C@@H]3C[C@H](OCCO)[C@@H](O)[C@H]3O)c2n1 | 1
COC(=O)C1=C(C)NC(C)=C(C(=O)OCCCN2CCC(c3ccccc3)(c3ccccc3)CC2)[C@H]1c1cccc([N+](=O)[O-])c1 | -1

Please examine the following record next.
Qu. Bench note: check whether CC(C)NC(=O)N1CC[C@H](NC2=Nc3cc(F)ccc3N(CC(F)F)c3ccc(Cl)cc32)C1 shows Population Membrane Permeable-Phenotype (%) below 8%
Ans. 1

###

# Test system: Fibroblast
# method-notes: Multiplex assay against human fibroblast
# Format: toxicity, cell-based
# condition-info: 24 h, 10 µM, compound concentration 10 uM, replicate 1
Listing of entries alongside the reported Population Tubulin-Different-Phenotype (%).
A number alone suffices; assume %.

Cc1nc(N2CC[C@H](O)C2)ncc1-c1cc(C(F)(F)F)cc2[nH]ncc12 | 3

Qu. Return Population Tubulin-Different-Phenotype (%) for the following compound: Cc1cccc(CN2CCN(C(c3ccccc3)c3ccc(Cl)cc3)CC2)c1.Cl.Cl (stereo not given)
Ans. 86

Qu. Supply recorded Population Tubulin-Different-Phenotype (%) for O=c1[nH]c2ccccc2n1C1CCN(Cc2ccc(-c3[nH]c4cc5ncnc5cc4nc3-c3ccccc3)cc2)CC1 here.
Ans. 65

Qu. Annotate the compound CNC(=O)Nc1ccc(-c2nc(N3CC4CCC(C3)O4)c3cnn(C4CCC5(CC4)OCCO5)c3n2)cc1 with its measured Population Tubulin-Different-Phenotype (%).
Ans. 88

Qu. Quote Population Tubulin-Different-Phenotype (%) reported for CNC(=O)Nc1ccc2c(c1)[C@@]1(CC2)OC(=O)N(CC(=O)N(Cc2ccc(F)cc2)[C@@H](C)C(F)(F)F)C1=O [A-486] please.
Ans. 8

###

# System: HEK-293T
# method-notes: Multiplex assay against HEK293T
# Type: toxicity, cell-based
# condition-info: human, 48 h, 10 µM, compound concentration 10 uM, replicate 2
measure: Total Cell Count
Reply with the value as a number alone.

CC1=C(C(=O)Nc2cc3cn[nH]c3cc2F)C(c2ccc(C(F)(F)F)cc2)CC(=O)N1 (configuration not stated) | 334

Qu. Please list Total Cell Count recorded for the compound Cc1c[nH]c2nccc(Oc3c(F)cc(Nc4cc(Cl)nc(N)n4)cc3F)c12
Ans. 219

Qu. Name the recorded Total Cell Count of the compound listed here: COc1ccccc1CN[C@H]1C2CCN(CC2)[C@H]1C(c1ccccc1)c1ccccc1
Ans. 330

Qu. Provide one value: measured Total Cell Count of CC(C)NC(=O)N1CC[C@H](NC2=Nc3cc(F)ccc3N(CC(F)F)c3ccc(Cl)cc32)C1
Ans. 219

Qu. Indicate the recorded Total Cell Count value for this compound: Cc1ccc(C)c(Oc2ccncc2C(=O)N2CCN(C3CC3)c3ccccc32)c1
Ans. 127

Qu. Given CCOC(=O)Nc1cc(-c2ccc(C)c(NS(C)(=O)=O)c2)nn2c(C)nnc12 , respond with its Total Cell Count.
Ans. 566

Qu. Check the records and state Total Cell Count for COc1ccc(-c2ccc3ncc4c(c3c2)n(-c2ccc(N3CCNCC3)c(C(F)(F)F)c2)c(=O)n4C)cn1.O=C(O)/C=C\C(=O)O
Ans. 397

###

# Test system: Fibroblast
# method-notes: Multiplex assay against human fibroblast
# Format: toxicity, cell-based
# condition-info: 12 h, 1 µM, compound concentration 1 uM, replicate 2
measure: Population Mitotic Cells (%)
Output spec: scalar in %, unitless text.

Would you please look over these solved cases?
O=C(c1cc2c(cc1F)OC(c1ccc(F)cc1)(c1ccc(Cl)cc1Cl)O2)N1CCOCC1 (stereo not given) | 50
Cc1cccc(CN2CCN(C(c3ccccc3)c3ccc(Cl)cc3)CC2)c1.Cl.Cl (stereo not given) | 100

Qu. Identify measured Population Mitotic Cells (%) associated with CCCSc1nc(N[C@@H]2C[C@H]2c2ccc(F)c(F)c2)c2nnn([C@@H]3C[C@H](OCCO)[C@@H](O)[C@H]3O)c2n1
Ans. 33

Qu. Look up Population Mitotic Cells (%) of CNC(=O)Nc1ccc(-c2nc(N3CC4CCC(C3)O4)c3cnn(C4CCC5(CC4)OCCO5)c3n2)cc1 and report it.
Ans. 100

Qu. Using the record for Cc1ccc2c(c1)c1c(n2CCc2ccc(C)nc2)CCN(C)C1 [LATREPIRDINE] , state its measured Population Mitotic Cells (%).
Ans. 0

###

# System: Fibroblast
# method-notes: Multiplex assay against human fibroblast
# Assay type: toxicity, cell-based
# condition-info: 48 h, 10 µM, compound concentration 10 uM, replicate 1
Measured Population Normal (%), listed per entry for reference.
Give just the number in %; leave the unit off.

Solved cases below.
Cl.O=C(O)c1cc(-c2ccc(C3CCNCC3)cc2)c2ccc(-c3ccc(C(F)(F)F)cc3)cc2c1 | 78
COc1ccccc1CN[C@H]1C2CCN(CC2)[C@H]1C(c1ccccc1)c1ccccc1 | 75
COc1cc(Nc2nccc(-c3cnn4nc(OC)ccc34)n2)cc(C(F)(F)F)c1 | 48

# next molecule below
Qu. Could you please provide reported Population Normal (%) for COc1ccc(-c2ccc3ncc4c(c3c2)n(-c2ccc(N3CCNCC3)c(C(F)(F)F)c2)c(=O)n4C)cn1.O=C(O)/C=C\C(=O)O ? Thanks!
Ans. 57

###

The compounds listed here are annotated with their Growth Rate.
# System: Fibroblast
# method-notes: Incucyte cell viability with human fibroblast; note: filed as whole numbers so only -1 and 0 and 1 occur
# Format: toxicity, cell-based
# condition-info: 6 h, 10 µM, compound concentration 10 uM, replicate number 1, timepoint 6 hours
Would you mind answering with just the numeric figure?

Consider the worked cases shown below.
COc1cc2ncn(-c3cc(OCc4ccccc4C(F)(F)F)c(C(N)=O)s3)c2cc1OC [GW843682X] | 1
CCCOc1ccc([C@H]2[C@H](C(=O)O)[C@@H](c3ccc4c(c3)OCO4)CN2CC(=O)Nc2c(CC)cccc2CC)cc1 [A-192621] | 1
CCOc1cn(-c2ccc(F)cc2C)nc1C(=O)Nc1ccc(Oc2ccnc3cc(OC)c(OC)cc23)c(F)c1 | 0
Cc1cc(NC(=O)c2cccc(S(F)(F)(F)(F)F)c2)cc(-n2ccn3nc(-c4cccnc4)cc23)c1 [BAY-309] | 0
O=C(O)Cn1c(C(=O)Nc2nc(-c3ccccc3Cl)cs2)cc2ccccc21 | 1
CNCc1ccccc1-c1csc([C@@H](C)Nc2nc(C)nc3cc(OC)c(OC)cc23)c1 [BAY-293] | 0
C[C@]12CC[C@@H]3c4ccc(O)cc4CC[C@H]3[C@@H]1CC[C@@H]2O [ESTRADIOL] | 0
CC1(C)CCC(C)(C)c2cc(C(=O)Nc3ccc(C(=O)O)cc3)ccc21 | 1

Qu. Item CO[C@@H](C)c1c(Nc2ccc([C@H](N(C)C(=O)C3CCS(=O)(=O)CC3)C(F)(F)F)cc2)cnc2cc(Cl)nn12 [NVS-MALT1] : provide Growth Rate
Ans. 0

Qu. Please give the documented Growth Rate of O=C(NCC(=O)N1CCCC1)Nc1ccc2cnccc2c1
Ans. 0

Qu. Dear colleague, please send me the reported Growth Rate for COc1cc(C(=O)NS(=O)(=O)c2ccccc2C)ccc1Cc1cn(C)c2ccc(NC(=O)OC3CCCC3)cc12 [ZAFIRLUKAST] when you can.
Ans. 1

Qu. Provide one value: measured Growth Rate of CSc1cccnc1N1CCN(Cc2nc3ccccc3[nH]2)CC1 [A-769]
Ans. 0

Qu. Provide Growth Rate value for the following compound: CCc1nn(CCCN2CCN(c3cccc(Cl)c3)CC2)c(=O)n1CCOc1ccccc1.Cl [NEFAZODONE HYDROCHLORIDE]
Ans. 0

###

Reported Population Hoechst High Intensity Objects (%) values for the following compounds.
# Test system: HEK-293T
# method-notes: Multiplex assay against HEK293T
# Assay type: toxicity, cell-based
# condition-info: human, 12 h, 1 µM, compound concentration 1 uM, replicate 1
Only the number, expressed in %, is required.

Qu. # return recorded Population Hoechst High Intensity Objects (%) for entry CC(C)OC(=O)N1CCC(Oc2ncnc3c2cnn3-c2ccc(S(C)(=O)=O)cc2F)CC1
Ans. 14

Qu. Answer with reported Population Hoechst High Intensity Objects (%) of Cc1nc(N2CC[C@H](O)C2)ncc1-c1cc(C(F)(F)F)cc2[nH]ncc12
Ans. 7

Qu. Supply Population Hoechst High Intensity Objects (%) value. Item: CCCSc1nc(N[C@@H]2C[C@H]2c2ccc(F)c(F)c2)c2nnn([C@@H]3C[C@H](OCCO)[C@@H](O)[C@H]3O)c2n1 [TICAGRELOR]
Ans. 18

Qu. Supply measured Population Hoechst High Intensity Objects (%) of CNC(=O)Nc1ccc2c(c1)[C@@]1(CC2)OC(=O)N(CC(=O)N(Cc2ccc(F)cc2)[C@@H](C)C(F)(F)F)C1=O [A-486] in your reply.
Ans. 15

Qu. Provide one value: measured Population Hoechst High Intensity Objects (%) of C=CC(=O)Nc1ccc2[nH]c(=O)n(C3CCN(Cc4ccc(-c5nc6cc[nH]c(=O)c6cc5-c5ccccc5)cc4)CC3)c2c1 [Borussertib]
Ans. 13

Qu. Give Population Hoechst High Intensity Objects (%) for the following compound: CCOC(=O)Nc1cc(-c2ccc(C)c(NS(C)(=O)=O)c2)nn2c(C)nnc12
Ans. 9

Qu. Identify measured Population Hoechst High Intensity Objects (%) corresponding to COc1cc(Nc2nccc(-c3cnn4nc(OC)ccc34)n2)cc(C(F)(F)F)c1
Ans. 13
